- target_or_test_system: Tubulin beta chain (Bos taurus, UniProt Q6B856)
- Sequence (Q6B856 whole entry): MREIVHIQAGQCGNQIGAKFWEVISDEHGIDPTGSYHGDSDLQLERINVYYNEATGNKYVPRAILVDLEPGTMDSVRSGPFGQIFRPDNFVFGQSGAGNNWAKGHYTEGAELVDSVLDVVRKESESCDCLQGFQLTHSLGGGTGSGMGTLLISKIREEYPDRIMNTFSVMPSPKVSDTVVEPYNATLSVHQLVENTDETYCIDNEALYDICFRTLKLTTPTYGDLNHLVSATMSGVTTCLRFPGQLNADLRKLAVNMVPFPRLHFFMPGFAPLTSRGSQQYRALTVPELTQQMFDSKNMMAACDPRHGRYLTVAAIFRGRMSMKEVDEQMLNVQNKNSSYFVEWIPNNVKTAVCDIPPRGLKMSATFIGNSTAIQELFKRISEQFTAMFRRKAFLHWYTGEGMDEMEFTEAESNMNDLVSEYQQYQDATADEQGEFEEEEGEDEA
- test_method_notes: Inhibition of bovine tubulin polymerization
IC50 values, listed per item

// worked examples, IC50 included
COc1ccc(-c2cc(O)c3ccc(C)nc3n2)cc1 | > 40 µM
COc1cccc(-c2cc(O)c3cc(Br)cnc3n2)c1 | 1.5 µM
COc1cccc(-c2cc(O)c3cc(C)cnc3n2)c1 | 0.8 µM

// moving on: another record for IC50
Quick one: IC50 of Oc1cc(-c2ccc(Cl)cc2)nc2ncccc12 ?
22 µM

----------
IC50 values, listed per item
- target_or_test_system: UniProt Q6B856
- test_method_notes: Inhibition of bovine tubulin polymerization

// worked examples, IC50 included
Cc1ccc(-c2cc(O)c3c(C)cc(C)nc3n2)cc1 | 9.8 µM
COc1cccc(-c2cc(O)c3cccnc3n2)c1 | 0.96 µM
Cc1ccc2c(O)cc(-c3ccc(Cl)cc3)nc2n1 | 11 µM
COc1ccccc1-c1cc(O)c2c(C)cc(C)nc2n1 | > 40 µM
Cc1ccnc2nc(-c3ccc(F)cc3)cc(O)c12 | 18 µM

# value lookup — system UniProt Q6B856, readout IC50, item Cc1ccc2c(O)cc(-c3ccc(F)cc3)nc2n1
> 40 µM

Can you check COc1cccc(-c2cc(O)c3c(C)ccnc3n2)c1 next?
0.62 µM

Can you check Cc1cc(C)c2c(O)cc(-c3ccc(Cl)cc3)nc2n1 next?
32 µM

Can you check Cc1cnc2nc(-c3ccc(F)cc3)cc(O)c2c1 next?
20 µM

Can you check Cc1cc(C)c2c(O)cc(-c3ccc(F)cc3)nc2n1 next?
> 40 µM

Can you check COc1cccc(-c2cc(O)c3ccc(C)nc3n2)c1 next?
0.75 µM

Can you check Cc1ccc(-c2cc(O)c3c(C)ccnc3n2)cc1 next?
2.9 µM

Can you check COc1ccccc1-c1cc(O)c2c(C)ccnc2n1 next?
20 µM

Can you check COc1ccc(-c2cc(O)c3cccnc3n2)cc1 next?
> 40 µM

Can you check COc1ccccc1-c1cc(O)c2cc(C)cnc2n1 next?
18 µM

Can you check Cc1ccc(-c2cc(O)c3ccc(C)nc3n2)cc1 next?
4.9 µM

Can you check COc1ccc(-c2cc(O)c3c(C)ccnc3n2)cc1 next?
8.8 µM

Can you check COc1cccc(-c2cc(O)c3cc(Cl)cnc3n2)c1 next?
0.73 µM
